Values compiled from a melting point compilation (Tetko et al.; mined from patent text by program, amines drawn as free bases though some values may be those of a salt).

List of melting point values.

[
  {
    "COMPOUND": "COc1ccc(C2(O)C=CNC(=O)N2)cc1OC1CC2CCC1C2 (configuration not stated)",
    "VALUE_OBSERVED": "167 to 169 °C"
  },
  {
    "COMPOUND": "CCS(=O)(=O)c1cc2c(O)cccc2o1",
    "VALUE_OBSERVED": "145 to 147 °C"
  },
  {
    "COMPOUND": "C[C@H](NC(=O)c1ccccc1)C(=O)N[C@@H](C)C(=O)Nc1ccccc1",
    "VALUE_OBSERVED": "245 to 248 °C"
  }
]

Kindly note the recorded melting point for "CCOC(=O)N1CCC(Nc2nc3cccnc3n2Cc2ccco2)CC1" , which is 149 °C

Kindly note the recorded melting point for CC(C)NC(=O)N1CCc2[nH]cnc2C1C1CCCCC1 (configuration not stated) , which is 254 °C

Kindly note the recorded melting point for "CCOC(=O)c1cn(-c2nnc(C)s2)c2nc(Cl)c(F)cc2c1=O" , which is 159 to 162 °C

Kindly note the recorded melting point for O=C1CC2CC(n3c(=O)[nH]c4ccccc43)CC2C1 (configuration not stated) , which is 246 to 248 °C

Kindly note the recorded melting point for "CN(c1ccccc1)[C@@H]1C=Cc2ccccc2[C@H]1O" , which is 127 to 129 °C

Kindly note the recorded melting point for CNC(=O)NC(C)C(C)CC(=O)NS(=O)(=O)c1ccc(C)cc1 (configuration not stated) , which is 120 to 125 °C

Kindly note the recorded melting point for "Cc1ccc(-c2cccc(C(N)=O)c2)cc1" , which is 200 to 205 °C

Kindly note the recorded melting point for "Nc1ncc(-c2cnc3ccc(-c4ccc(OCC5(N)COC5)cc4)nn23)cc1C(F)(F)F" , which is 198 to 200 °C

Kindly note the recorded melting point for "CCCN(CCC)Cc1cnc(-c2ncn3c2CN(C)C(=O)c2sccc2-3)o1" , which is 142 to 144 °C

Kindly note the recorded melting point for "CCCn1c(=O)c2c(NC)n[nH]c2n(Cc2cccs2)c1=O" , which is > 300 °C

Kindly note the recorded melting point for "N#CC1=Cc2cc(Cl)ccc2OC1" , which is 124 to 126 °C

----------
List of melting point values.

Consider the worked cases shown below.
[
  {
    "COMPOUND": "CC(NC(=O)c1ccc(C2(C)C(=O)Nc3cc(Cl)cc(Cl)c3C2=O)cc1)c1ccccc1 (centres undefined)",
    "MEASURE_NAME": "melting point",
    "VALUE_OBSERVED": "110 to 115 °C"
  },
  {
    "COMPOUND": "COC(=O)C(Cl)=Cc1cc(-n2ncc(C(F)(F)F)cc2=O)ccc1Cl",
    "MEASURE_NAME": "melting point",
    "VALUE_OBSERVED": "140 to 141 °C"
  },
  {
    "COMPOUND": "Cc1noc(NC(=O)C(c2ccccc2)c2ccccc2)n1",
    "MEASURE_NAME": "melting point",
    "VALUE_OBSERVED": "215 °C"
  },
  {
    "COMPOUND": "CS(=O)(=O)c1ccc(C(CC2CCCC2)C(=O)Nc2ccc(Br)cn2)cc1[N+](=O)[O-] (centres undefined)",
    "MEASURE_NAME": "melting point",
    "VALUE_OBSERVED": "80 to 83 °C"
  },
  {
    "COMPOUND": "O=c1[nH]c(=O)n(C2CC(OCc3ccccc3Cl)C(CO)O2)cc1F (centres undefined)",
    "MEASURE_NAME": "melting point",
    "VALUE_OBSERVED": "78 to 80 °C"
  }
]

Kindly note the recorded melting point for "COC[C@](C#N)(C(=O)N1CCN(c2cnccn2)CC1)[C@H](c1ccccc1OC)c1cccc2ccccc12" , which is 149 °C

Kindly note the recorded melting point for CCC(c1ccccn1)N(Cc1ccc(C(=O)OC)cc1)S(=O)(=O)c1ccc(F)cc1 (centres undefined) , which is 82 to 84 °C

Kindly note the recorded melting point for "COc1ccc(-c2c(Cl)c(CCl)nc3sc4c(c23)CCN(Cc2ccccc2)C4)cc1OC" , which is 171 to 172 °C

Kindly note the recorded melting point for "CCC1(CC)CN(c2ncc(C(=O)N(C)c3cccc(C(F)(F)F)c3)c(N)n2)C(=O)N1" , which is 185 to 187 °C

Kindly note the recorded melting point for "Cc1ccc(C2(c3ccc(C)cc3)CCN=C2NC(=O)c2cc(C)n[nH]2)cc1" , which is 243 to 245 °C

Kindly note the recorded melting point for "O=[N+]([O-])c1ccc2c(c1)S(=O)(=O)NCN2CCF" , which is 165 to 166 °C

Kindly note the recorded melting point for COc1ncc(CC2SC(N3CCOCC3)=NC2=O)cc1-c1ccc(O)c(C23CC4CC(CC(C4)C2)C3)c1 (centres undefined) , which is 175 to 177 °C
